Tested on: AR transcriptional activity
protocol_summary: MMTV-LUC luciferase reporter assay in 22RV1 cells, DHT+ (screening and IC50)
Format: cell-based
experimental_context: Homo sapiens, 10 uM, with DHT, control = 100
We begin with a simple list: items and their reported activity at 10 µM.
Give the value in % but do not write % after it.

Req: Provide only the value of recorded activity at 10 µM for CC1=CC(=O)c2c(O)cccc2C1=O
Resp: 7.1

Req: Provide only the value of recorded activity at 10 µM for CO[C@H]1O[C@@H]2O[C@@]3(C)CC[C@H]4[C@H](C)CC[C@@H]([C@H]1C)[C@@]24OO3
Resp: 138

----------
We begin with a simple list: items and their reported activity at 10 µM.
System: AR-V7 transcriptional activity
protocol_summary: MMTV-LUC luciferase reporter assay in 22RV1 cells, DHT− (screening and IC50)
Assay type: cell-based
experimental_context: Homo sapiens; 22RV1 cells, 10 uM, no DHT; control = 100
Give the value in % but do not write % after it.

Check out these entries, answers already filled in.
compound="C=CCc1ccc(O)c(-c2cc(CC=C)ccc2O)c1 [Magnolol]" measured_property="activity at 10 µM" assay_result=130
compound="CC(=O)O[C@H](CC=C(C)C)C1=CC(=O)c2c(O)ccc(O)c2C1=O [Acetylshikonin]" measured_property="activity at 10 µM" assay_result=38.6
compound="C[C@H]1[C@@H](O)O[C@@H]2O[C@@]3(C)CC[C@H]4[C@H](C)CC[C@@H]1[C@@]24OO3 [Dihydroartemisinin]" measured_property="activity at 10 µM" assay_result=115

Continue with the compound presented below.
Req: Provide only the value of recorded activity at 10 µM for O=C(O)c1cc(O)c2c(c1)C(=O)c1cccc(O)c1C2=O [Rhein]
Resp: 83

----------
We begin with a simple list: items and their reported MMTV-LUC activity (%) DHT+.
System: AR transcriptional activity
protocol_summary: MMTV-LUC luciferase reporter assay in 22RV1 cells, DHT+ (screening and IC50)
Type: cell-based
experimental_context: 10 uM, with DHT, control = 100
Give the value in % but do not write % after it.

Check out these entries, answers already filled in.
molecule="COC(=O)[C@]12OC[C@]34[C@H]([C@@H](O)[C@@H]1O)[C@@]1(C)C=C(O[C@@H]5O[C@H](CO)[C@@H](O)[C@H](O)[C@H]5O)C(=O)[C@@H](C)[C@@H]1C[C@H]3OC(=O)[C@H](OC(C)=O)[C@@H]24 [Yadanzioside F]" measured_property="MMTV-LUC activity (%) DHT+" assay_result=139.5
molecule="COC(=O)[C@]12OC[C@]34[C@H]([C@@H](O)[C@@H]1O)[C@@]1(C)CC(=O)C(O[C@@H]5O[C@H](CO)[C@@H](O)[C@H](O)[C@H]5O)=C(C)[C@@H]1C[C@H]3OC(=O)[C@H](OC(C)=O)[C@@H]24 [Yadanzioside I]" measured_property="MMTV-LUC activity (%) DHT+" assay_result=136.0
molecule="COC(=O)[C@]12OC[C@]34[C@H]([C@@H](O)[C@@H]1O)[C@@]1(C)C=C(O[C@@H]5O[C@H](CO)[C@@H](O)[C@H](O)[C@H]5O)C(=O)[C@@H](C)[C@@H]1C[C@H]3OC(=O)[C@H](OC(=O)/C=C(\\C)C(C)(C)O)[C@@H]24 [Yadanzioside C]" measured_property="MMTV-LUC activity (%) DHT+" assay_result=5.8
molecule="CC1=CC(=O)[C@@H](O)[C@@]2(C)[C@H]1[C@@H](O)[C@H]1OC(=O)[C@H](O)[C@]3(O)[C@]14CO[C@]3(CO)[C@@H](O)[C@H](O)[C@H]24 [Yadanziolide B]" measured_property="MMTV-LUC activity (%) DHT+" assay_result=4.0
molecule="C[C@H](CC(=O)C[C@@H](C)[C@H]1C[C@H](O)[C@@]2(C)C3=C(C(=O)C[C@]12C)[C@@]1(C)CCC(=O)C(C)(C)[C@@H]1C[C@@H]3O)C(=O)O [Ganoderic acid A]" measured_property="MMTV-LUC activity (%) DHT+" assay_result=148.9

Continue with the molecule presented below.
Req: Provide only the value of recorded MMTV-LUC activity (%) DHT+ for CC(C)=CC[C@H](OC(=O)C=C(C)C)C1=CC(=O)c2c(O)ccc(O)c2C1=O [β, β-Dimethylacrylalkannin]
Resp: 19.9
